target: Recombinant human cathepsin A (Homo sapiens (Human)); assay: Cathepsin A inhibitory activity (cleavage of Bodipy FL-labeled bradykinin, microfluidic capillary electrophoresis); format: biochemical; settings: read-out: Activity [μM] (IC50, cathepsin A inhibitory activity)
Sequence (P10619 29-326): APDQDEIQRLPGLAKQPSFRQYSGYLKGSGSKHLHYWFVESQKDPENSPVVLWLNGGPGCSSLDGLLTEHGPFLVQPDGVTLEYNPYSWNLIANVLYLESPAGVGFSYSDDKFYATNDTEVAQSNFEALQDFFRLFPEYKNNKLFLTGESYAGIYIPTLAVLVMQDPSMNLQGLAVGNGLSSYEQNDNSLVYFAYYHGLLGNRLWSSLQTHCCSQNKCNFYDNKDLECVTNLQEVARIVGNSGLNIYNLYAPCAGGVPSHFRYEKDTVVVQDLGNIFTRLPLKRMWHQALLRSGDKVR
Sequence (P10619 327-480): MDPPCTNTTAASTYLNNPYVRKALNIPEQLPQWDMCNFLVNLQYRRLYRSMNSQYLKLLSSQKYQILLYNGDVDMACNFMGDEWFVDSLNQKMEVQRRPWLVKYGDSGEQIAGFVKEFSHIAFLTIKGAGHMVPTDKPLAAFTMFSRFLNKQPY
IC50 less than 9 µM is yes (1); IC50 greater than or equal to 9 µM is no (0).

smiles_record=COc1ccc(-c2nc(C(=O)N[C@@H](CC(=O)O)c3ccccc3Cl)ccc2OC)cc1 assigned_category="yes (1)"
smiles_record=COc1ccc(C(=O)N[C@@H](CC(=O)O)c2ccccc2F)nc1-c1cc(C)ccc1Cl assigned_category="yes (1)"
smiles_record=COc1cccc(-c2cc(C(=O)N[C@@H](CC(=O)O)c3ccccc3Cl)cnc2OC)c1 assigned_category="no (0)"
smiles_record=COc1ccc(C(=O)N[C@@H](CC(=O)O)c2ccc(C)cc2)nc1-c1cccc(C(F)(F)F)c1 assigned_category="yes (1)"
smiles_record=Cc1ccccc1[C@H](CC(=O)O)NC(=O)c1cccc(-c2cccc(C(C)(C)O)c2)n1 assigned_category="yes (1)"
smiles_record=COc1ccc(C(=O)N[C@@H](CC(=O)O)c2ccccc2Cl)nc1-c1ccc(Cl)cc1 assigned_category="yes (1)"
smiles_record=COc1ccc(C(=O)N[C@@H](CC(=O)O)c2ccccc2F)nc1-c1cccc(F)c1Cl assigned_category="yes (1)"
smiles_record=COc1ccc(C(=O)N[C@@H](CC(=O)O)c2ccccc2C)nc1-c1ccc(C)c(F)c1 assigned_category="yes (1)"
smiles_record=COc1ccc(C(=O)N[C@@H](CC(=O)O)c2ccc(C)cc2)nc1-c1ccc(F)c(F)c1 assigned_category="yes (1)"
smiles_record=Cc1ccc(-c2cccc(C(=O)N[C@@H](CC(=O)O)c3ccccc3C)n2)cc1C assigned_category="yes (1)"
smiles_record=Cc1ccccc1[C@H](CC(=O)O)NC(=O)c1cccc(-c2c(C)noc2C)n1 assigned_category="no (0)"
smiles_record=COc1ncc(C(=O)N[C@@H](CC(=O)O)c2ccccc2Cl)cc1-c1cccc(Cl)c1 assigned_category="no (0)"
smiles_record=Cc1ccccc1[C@H](CC(=O)O)NC(=O)c1cccc(-c2ccccc2C#N)n1 assigned_category="yes (1)"
